These measurements were taken from ChEMBL document CHEMBL1130141.

- TESTED_TARGET: Translocator protein (Rattus norvegicus)
- METHOD_SUMMARY: In vitro displacement of [3H]PK11195 from the peripheral benzodiazepine receptor (PBR) in rat cortex
pIC50: −log10 of the molar value.
METRIC_NAME: pIC50

- CCC(C)N1Cc2c(nc(-c3ccccc3)c3ccccc23)C1=O (stereo not drawn): 6.21
- O=C1c2nc3ccccc3c(-c3ccccc3)c2CCCN1Cc1ccccc1: 6.77
- Cc1c(C(=O)N(C)Cc2ccccc2)nc2ccccc2c1-c1ccccc1: 8.68
- COc1ccc(N(C)C(=O)c2nc3ccccc3c(-c3ccccc3)c2C)cc1: 8.06
- CCC(C)N1CC=Cc2c(nc(-c3ccccc3)c3ccccc23)C1=O (stereo not drawn): 6.31
- CCC(C)NC(=O)c1nc2ccccc2c(-c2ccccc2)c1C (stereo not drawn): 6.64
- Cc1c(C(=O)N(C)Cc2ccccc2)nc(-c2ccccc2)c2ccccc12: 8.51
- Cc1c(C(=O)NCc2ccc(Cl)cc2)nc2ccccc2c1-c1ccccc1: 5.77
- Cc1c(C(=O)N(C)c2ccc(Cl)cc2)nc2ccccc2c1-c1ccccc1: 8.19
- Cc1c(C(=O)N(C)Cc2ccc(Cl)cc2)nc2ccccc2c1-c1ccccc1F: 8.47
- O=C1c2nc(-c3ccccc3)c3ccccc3c2CN1Cc1ccccc1: 6.32
- CCC(C)N1CCCc2c(nc3ccccc3c2-c2ccccc2)C1=O (stereo not drawn): 5.92
- CCC(C)NC(=O)c1nc(-c2ccccc2)c2ccccc2c1C (stereo not drawn): 6.26
- CCC(C)N(C)C(=O)c1nc(-c2ccccc2)c2ccccc2c1C (stereo not drawn): 7.96
- CCCCC1c2c(nc3ccccc3c2-c2ccccc2)C(=O)N1Cc1ccccc1 (stereo not drawn): 6.09
- CCC(C)NC(=O)c1nc2ccccc2c(-c2ccccc2F)c1C (stereo not drawn): 7.89

====

- TESTED_TARGET: Translocator protein (Rattus norvegicus, UniProt P16257)
- Sequence (P16257 whole entry, looked up): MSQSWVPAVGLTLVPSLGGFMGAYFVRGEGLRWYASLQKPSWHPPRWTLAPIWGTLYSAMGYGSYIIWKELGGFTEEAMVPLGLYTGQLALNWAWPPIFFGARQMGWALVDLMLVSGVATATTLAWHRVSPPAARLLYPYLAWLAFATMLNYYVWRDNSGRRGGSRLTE
- METHOD_SUMMARY: In vitro displacement of [3H]PK11195 from the peripheral benzodiazepine receptor (PBR) in rat cortex
hey, just use yes if measured IC50 is less than 10 nM, otherwise no

* CCC(C)N(C)C(=O)c1nc2ccccc2c(-c2ccccc2F)c1C (stereo unspecified) | yes
* CN(Cc1ccccc1)C(=O)c1nc2ccccc2c2c1CCc1ccccc1-2 | yes
* CCC(C)N1CCCc2c(nc(-c3ccccc3)c3ccccc23)C1=O (stereo unspecified) | no
* Cc1c(C(=O)NCc2ccc(Cl)cc2)nc2ccccc2c1-c1ccccc1F | no
* CCC(C)N1Cc2c(nc3ccccc3c2-c2ccccc2)C1=O (stereo unspecified) | no
* CCC(C)N(C)C(=O)c1nc2ccccc2c(-c2ccccc2)c1C (stereo unspecified) | yes
* O=C1c2nc(-c3ccccc3)c3ccccc3c2C=CCN1Cc1ccccc1 | no
* Cc1c(C(=O)NCc2ccccc2)nc2ccccc2c1-c1ccccc1 | no
* O=C1c2nc3ccccc3c(-c3ccccc3)c2CN1Cc1ccccc1 | no

====

- TESTED_TARGET: Translocator protein (Rattus norvegicus, UniProt P16257)
- METHOD_SUMMARY: In vitro binding affinity (pIC50) was tested against peripheral benzodiazepine receptor (PBR) in rat.
METRIC_NAME: log10 IC50 (log10 of the value in nM)

- CN(Cc1ccccc1)C(=O)c1nc2ccccc2c2c1CCc1ccccc1-2: 0.95
- CCC(C)N(C)C(=O)c1nc2ccccc2c(-c2ccccc2)c1C (stereo not given): 0.32
- O=C1c2nc(-c3ccccc3)c3ccccc3c2C=CCN1Cc1ccccc1: 1.66
- CCC(C)N1CCCc2c(nc3ccccc3c2-c2ccccc2)C1=O (stereo not given): 3.08
- O=C1c2nc3ccccc3c(-c3ccccc3)c2CCCN1Cc1ccccc1: 2.23
- Cc1c(C(=O)N(C)Cc2ccccc2)nc(-c2ccccc2)c2ccccc12: 0.49
- CCCCC1c2c(nc3ccccc3c2-c2ccccc2)C(=O)N1Cc1ccccc1 (stereo not given): 2.91
- Cc1c(C(=O)NCc2ccc(Cl)cc2)nc2ccccc2c1-c1ccccc1F: 2.43
- CCC(C)N1CCCc2c(nc(-c3ccccc3)c3ccccc23)C1=O (stereo not given): 2.90
- Cc1c(C(=O)N(C)c2ccc(Cl)cc2)nc2ccccc2c1-c1ccccc1: 0.81
